Please go through the items and note down their GI50.
- System: HS 578T breast
- METHOD_DESCRIPTION: NCI tumour cell line growth inhibition, 48 h

Query block: Record request: GI50 value, item Cc1cn2c(/C=C3/C(=O)Nc4ccc(O)cc43)c(C)nc2s1
Result block: 2.68 µM

Query block: Consider next the compound Nc1c(C(=O)c2cccc(C#CCO)c2)cnn1-c1ccc(F)cc1 in the same way.
Result block: 5.18 µM

Query block: Consider next the compound CCOC(=O)C1CCCCN1C(=O)c1ccc(Nc2cnc3cc(C(F)(F)F)ccc3n2)cc1 (stereo not given) in the same way.
Result block: 3.18 µM

Query block: Consider next the compound COc1cccc(-c2cc3c4c(nc5ccccc53)C(=O)c3cccnc3-c4n2)c1 in the same way.
Result block: 3.18 µM

Query block: Consider next the compound CCSc1nc(SCC)c2c(-c3ccc(OC)c(OC)c3)c(C#N)c(SCC)nc2n1 in the same way.
Result block: 3 µM

Query block: Consider next the compound COc1cc(OC)c(C(=O)/C=C/c2cccc(C#N)c2)c(OC)c1 in the same way.
Result block: 1.59 µM

Query block: Consider next the compound CC1=C(CCC(C)NCc2ccc(OCCCN3CCCCC3)cc2)C(C)(C)CCC1 (stereo not given) in the same way.
Result block: 1.61 µM

Query block: Consider next the compound Cc1ccc(C(=O)NC2CCC2)cc1-c1ccc(C(=O)NCC2CC2)cc1 in the same way.
Result block: > 25 µM

Query block: Consider next the compound Cc1nn(-c2ccc([N+](=O)[O-])cc2)c2ncnc(N/N=C/c3ccccc3O)c12 in the same way.
Result block: 1.43 µM

Query block: Consider next the compound COC(=O)C1=C(C)NC(C)=C(C(=O)OCC(C)C)C1c1ccccc1[N+](=O)[O-] (stereo not given) in the same way.
Result block: 13.9 µM

Query block: Consider next the compound NS(=O)(=O)c1ccc(/C=C/c2ccc(O)cc2)cc1 in the same way.
Result block: 28.9 µM

Query block: Consider next the compound c1ccc2[nH]c(-c3cc(-c4ccc5c(c4)OCO5)n[nH]3)nc2c1 in the same way.
Result block: 3.8 µM

Query block: Consider next the compound C=C1c2ccoc2C[C@H]2[C@H]1CC[C@@]1(O)[C@@](C)(C(=O)OC)CCC[C@]21C in the same way.
Result block: 71.9 µM

Query block: Consider next the compound Cc1[nH]c(=O)nc(Nc2ccc(Cl)cc2)c1C(=O)N1CCN(CCO)CC1 in the same way.
Result block: 34.2 µM

Query block: Consider next the compound CCC[CH2][Sn]1([CH2]CCC)[O]C2C(CO)OC(n3ccc(N)nc3=O)C2[O]1 (stereo not given) in the same way.
Result block: 1.29 µM

###

- Test system: NCI-H226 lung
- METHOD_DESCRIPTION: NCI tumour cell line growth inhibition, 48 h
QUANTITY_NAME: GI50

Query block: Record request: GI50 value, item Cc1nn(-c2ccc([N+](=O)[O-])cc2)c2ncnc(N/N=C/c3ccccc3O)c12
Result block: 2.56 µM

Query block: Consider next the compound COC(=O)C1=C(C)NC(C)=C(C(=O)OCC(C)C)C1c1ccccc1[N+](=O)[O-] (stereo not given) in the same way.
Result block: 3.75 µM

Query block: Consider next the compound Nc1ncnc2c1c(-c1ccc(Oc3ccccc3)cc1)nn2C[C@@H]1SSC[C@H]1O in the same way.
Result block: 1.69 µM

Query block: Consider next the compound Nc1c(C(=O)c2cccc(C#CCO)c2)cnn1-c1ccc(F)cc1 in the same way.
Result block: > 25 µM

Query block: Consider next the compound CCC[CH2][Sn]1([CH2]CCC)[O]C2C(CO)OC(n3ccc(N)nc3=O)C2[O]1 (stereo not given) in the same way.
Result block: 2.02 µM
